System: M. mycetomatis genome strain MM55
Experiment: CLSI M38-A2 based in vitro susceptibility screening (XTT or resazurin), growth at fixed concentration
Type: cell-based, Madurella mycetomatis
Settings: Madurella mycetomatis, 25 uM, replicate C, MM55; read-out: Percentage survival at 25um, 25 uM C
EXPERIMENTAL_ENDPOINT: activity at 25 µM (%)
Output spec: scalar in %, unitless text.

>  <MOLECULE>
O=C(O)/C=C/C=C/c1cccc(Oc2cc(Cl)cc(Cl)c2)c1 [MMV1633963]

>  <MEASUREMENT_TARGET>
M. mycetomatis genome strain MM55

>  <UNIT_STRING>
%

>  <activity at 25 µM>
17.4

$$$$
>  <MOLECULE>
Cc1cc(CCCOc2c(C)cc(-c3noc(C(F)(F)F)n3)cc2C)on1 [MMV690467]

>  <MEASUREMENT_TARGET>
M. mycetomatis genome strain MM55

>  <UNIT_STRING>
%

>  <activity at 25 µM>
108

$$$$
>  <MOLECULE>
C/C(=N\NC(=O)C1CC1c1ccccc1)c1ccc(NC(=O)c2ccco2)cc1 (stereo not drawn) [MMV1580487]

>  <MEASUREMENT_TARGET>
M. mycetomatis genome strain MM55

>  <UNIT_STRING>
%

>  <activity at 25 µM>
78.4

$$$$
>  <MOLECULE>
Cn1c2ccccc2c(=O)c2c(O)cccc21 [MMV1580500]

>  <MEASUREMENT_TARGET>
M. mycetomatis genome strain MM55

>  <UNIT_STRING>
%

>  <activity at 25 µM>
64.2

$$$$

So, CC(C)Nc1nc2cc(Cl)c(Cl)cc2n1[C@H]1O[C@@H](CO)[C@H](O)[C@@H]1O [MMV1593521] ? Its activity at 25 µM was 87

Kindly note the recorded activity at 25 µM for CC1(C)CC(NC(=O)C(=O)Nc2ccc(Cl)cc2)CC(C)(C)N1 [MMV1580501] , which is 73.3

# activity at 25 µM of CCCC1(C2CC2)c2cc(Cl)ccc2NC(=O)N1C (stereo not drawn) [MMV1782113] = 61.2

Measured activity at 25 µM, COc1ccc(C(C)(C)C)cc1NC(=O)C(=O)c1ccc(OCCN2CCOCC2)c2ccccc12 [MMV1782209] : 87.2

activity at 25 µM measured on O=C(NCc1ccc(F)cc1)c1c(O)c2ncccc2[nH]c1=O [MMV1782097] = 88.2
